molecular target: Histone deacetylase 1 (Homo sapiens)
Sequence (Q13547 whole entry): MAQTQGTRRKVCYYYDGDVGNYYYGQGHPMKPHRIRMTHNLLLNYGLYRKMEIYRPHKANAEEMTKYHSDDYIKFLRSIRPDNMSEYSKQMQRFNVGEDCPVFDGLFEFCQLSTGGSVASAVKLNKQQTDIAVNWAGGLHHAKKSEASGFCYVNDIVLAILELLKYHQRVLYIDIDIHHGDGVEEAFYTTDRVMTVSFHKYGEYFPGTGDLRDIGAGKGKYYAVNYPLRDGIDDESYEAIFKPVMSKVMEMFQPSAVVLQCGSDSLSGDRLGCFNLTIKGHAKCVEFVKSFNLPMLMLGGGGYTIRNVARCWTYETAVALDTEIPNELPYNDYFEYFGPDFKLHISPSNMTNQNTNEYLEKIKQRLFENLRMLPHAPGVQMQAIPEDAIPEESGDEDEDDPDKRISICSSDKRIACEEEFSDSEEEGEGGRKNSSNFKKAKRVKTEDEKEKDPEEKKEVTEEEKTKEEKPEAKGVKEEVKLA
metric-name: pIC50
# log scale: pIC50 equals minus log10 of the concentration in mol/L

Report pIC50 under test system Histone deacetylase 1 (Homo sapiens) for `O=C(CCCCCn1cc(Nc2ncc3ccn(Cc4ccccc4F)c3n2)cn1)NO` . 6.84

---

Target: UniProt Q9UBN7
Sequence (Q9UBN7 whole entry): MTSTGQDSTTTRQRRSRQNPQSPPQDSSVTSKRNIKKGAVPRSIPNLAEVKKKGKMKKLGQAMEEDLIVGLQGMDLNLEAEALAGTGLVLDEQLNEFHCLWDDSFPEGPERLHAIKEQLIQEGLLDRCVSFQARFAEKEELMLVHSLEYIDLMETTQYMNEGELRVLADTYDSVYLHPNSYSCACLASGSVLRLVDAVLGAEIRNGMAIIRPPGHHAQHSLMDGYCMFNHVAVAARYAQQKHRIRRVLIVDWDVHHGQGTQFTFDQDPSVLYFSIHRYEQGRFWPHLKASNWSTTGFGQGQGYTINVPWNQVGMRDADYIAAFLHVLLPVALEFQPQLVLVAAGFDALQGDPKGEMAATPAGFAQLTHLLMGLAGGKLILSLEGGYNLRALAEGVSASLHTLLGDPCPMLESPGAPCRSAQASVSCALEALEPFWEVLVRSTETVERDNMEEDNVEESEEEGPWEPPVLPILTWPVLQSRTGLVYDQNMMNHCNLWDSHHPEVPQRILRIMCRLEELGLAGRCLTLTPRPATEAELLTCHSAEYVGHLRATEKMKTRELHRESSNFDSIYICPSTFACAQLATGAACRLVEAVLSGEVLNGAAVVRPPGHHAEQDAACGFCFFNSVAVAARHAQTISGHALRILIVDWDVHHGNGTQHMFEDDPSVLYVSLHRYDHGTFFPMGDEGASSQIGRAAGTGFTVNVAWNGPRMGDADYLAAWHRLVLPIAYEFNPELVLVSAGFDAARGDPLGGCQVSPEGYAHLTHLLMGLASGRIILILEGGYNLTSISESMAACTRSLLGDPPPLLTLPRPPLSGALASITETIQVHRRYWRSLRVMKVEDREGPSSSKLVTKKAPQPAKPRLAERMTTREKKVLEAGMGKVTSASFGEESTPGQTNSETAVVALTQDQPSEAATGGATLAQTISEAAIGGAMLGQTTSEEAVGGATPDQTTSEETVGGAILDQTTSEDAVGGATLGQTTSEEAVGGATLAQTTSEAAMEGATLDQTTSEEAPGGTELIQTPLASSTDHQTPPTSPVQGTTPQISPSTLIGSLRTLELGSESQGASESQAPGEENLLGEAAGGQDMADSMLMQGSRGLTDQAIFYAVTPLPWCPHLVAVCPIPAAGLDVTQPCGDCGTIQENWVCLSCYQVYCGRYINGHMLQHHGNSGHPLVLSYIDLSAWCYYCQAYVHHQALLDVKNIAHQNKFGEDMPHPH
Assay: Inhibition of HDAC6 (unknown origin) incubated for 60 mins by microplate reader analysis
The threshold is 30 nM. Values of IC50 beneath it are tagged condition met; values meeting or exceeding it are tagged condition not met.

Past entries and their recorded results:
structure	assigned-label
O=C(CCCCCn1cc(Nc2ncc3ccn(-c4ccc(Br)cc4)c3n2)cn1)NO	condition met
COc1cccc(Cn2ccc3cnc(Nc4cnn(CCCCCC(=O)NO)c4)nc32)c1	condition not met
O=C(CCCCCn1cc(Nc2ncc3ccn(Cc4ccccc4F)c3n2)cn1)NO	condition met
O=C(CCCCCn1cc(Nc2ncc3ccn(Cc4ccccc4Cl)c3n2)cn1)NO	condition not met

State whether 30 nM exceeds IC50 recorded for `O=C(CCCCCCn1cc(Nc2ncc3ccn(Cc4cccc(F)c4)c3n2)cn1)NO` . condition met

State whether 30 nM exceeds IC50 recorded for `COc1cccc(Cn2ccc3cnc(Nc4cnn(CCCCCCC(=O)NO)c4)nc32)c1` . condition met

State whether 30 nM exceeds IC50 recorded for `O=C(CCCCCCn1cc(Nc2ncc3ccn(CC4CC4)c3n2)cn1)NO` . condition met

State whether 30 nM exceeds IC50 recorded for `O=C(CCCCCCn1cc(Nc2ncc3ccn(-c4ccccc4)c3n2)cn1)NO` . condition met

---

test system: MDA-MB-468; experiment: cells; format: functional, cell-based; conditions: Homo sapiens, MDA-MB-468, 72 h
metric-name: IC50 (µM)
Write it as a number; the unit µM goes unstated.

Retrieve IC50 measured for `O=C(CCCCCCn1cc(Nc2ncc3ccn(Cc4cccc(F)c4)c3n2)cn1)NO` and print it. 2.45

---

molecular target: Tyrosine-protein kinase JAK2 (Homo sapiens)
Sequence (O60674 whole entry): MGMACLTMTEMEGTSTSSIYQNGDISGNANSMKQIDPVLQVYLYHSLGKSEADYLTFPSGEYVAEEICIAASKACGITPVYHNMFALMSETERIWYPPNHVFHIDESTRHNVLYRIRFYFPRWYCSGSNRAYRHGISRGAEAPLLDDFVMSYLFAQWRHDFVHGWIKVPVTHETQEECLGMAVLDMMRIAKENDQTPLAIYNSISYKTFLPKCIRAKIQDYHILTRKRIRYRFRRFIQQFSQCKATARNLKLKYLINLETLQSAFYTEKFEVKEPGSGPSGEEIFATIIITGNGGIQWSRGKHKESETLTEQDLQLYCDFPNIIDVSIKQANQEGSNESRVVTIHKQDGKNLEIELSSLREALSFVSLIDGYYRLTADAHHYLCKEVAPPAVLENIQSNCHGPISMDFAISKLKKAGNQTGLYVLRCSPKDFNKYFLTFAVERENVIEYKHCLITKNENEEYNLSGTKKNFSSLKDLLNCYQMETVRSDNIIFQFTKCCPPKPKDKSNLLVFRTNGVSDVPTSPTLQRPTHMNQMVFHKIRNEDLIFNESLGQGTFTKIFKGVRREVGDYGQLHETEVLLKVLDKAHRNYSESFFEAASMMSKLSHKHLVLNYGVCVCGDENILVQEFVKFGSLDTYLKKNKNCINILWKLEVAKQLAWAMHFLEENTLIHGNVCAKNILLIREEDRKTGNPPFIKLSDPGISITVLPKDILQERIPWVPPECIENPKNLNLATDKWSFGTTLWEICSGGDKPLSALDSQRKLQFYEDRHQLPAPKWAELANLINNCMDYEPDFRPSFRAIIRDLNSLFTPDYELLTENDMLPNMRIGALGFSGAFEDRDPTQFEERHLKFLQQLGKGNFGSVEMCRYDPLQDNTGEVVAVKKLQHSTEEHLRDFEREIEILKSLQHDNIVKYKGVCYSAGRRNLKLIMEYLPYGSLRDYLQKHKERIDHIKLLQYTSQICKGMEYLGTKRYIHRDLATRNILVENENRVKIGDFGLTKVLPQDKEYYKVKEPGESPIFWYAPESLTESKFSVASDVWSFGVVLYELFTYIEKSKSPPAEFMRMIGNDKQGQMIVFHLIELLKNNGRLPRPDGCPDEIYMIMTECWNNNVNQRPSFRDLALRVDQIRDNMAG
The threshold is 0.03 µM. Values of IC50 beneath it are tagged true; values meeting or exceeding it are tagged false.

Past entries and their recorded results:
structure	tested-on	assigned-label
COc1ccc(Cn2ccc3cnc(Nc4cnn(CCCCCC(=O)NO)c4)nc32)cc1	Tyrosine-protein kinase JAK2 (Homo sapiens)	false
O=C(CCCCCCn1cc(Nc2ncc3ccn(CCc4ccccc4)c3n2)cn1)NO	Tyrosine-protein kinase JAK2 (Homo sapiens)	false
O=C(CCCCCn1cc(Nc2ncc3ccn(CCc4ccccc4)c3n2)cn1)NO	Tyrosine-protein kinase JAK2 (Homo sapiens)	false

State whether 0.03 µM exceeds IC50 recorded for `O=C(CCCCCCn1cc(Nc2nccc(-c3cc(F)cc(F)c3)n2)cn1)NO` . false

State whether 0.03 µM exceeds IC50 recorded for `O=C(CCCCCCn1cc(Nc2ncc3ccn(Cc4ccccc4)c3n2)cn1)NO` . false

State whether 0.03 µM exceeds IC50 recorded for `CS(=O)(=O)c1ccc(-n2ccc3cnc(Nc4cnn(CCCCCCC(=O)NO)c4)nc32)cc1` . true

State whether 0.03 µM exceeds IC50 recorded for `O=C(CCCCCCn1cc(Nc2ncc3ccn(-c4ccc(F)cc4)c3n2)cn1)NO` . false

State whether 0.03 µM exceeds IC50 recorded for `O=C(CCCCCn1cc(Nc2ncc3ccn(-c4ccc(Br)cc4)c3n2)cn1)NO` . true

State whether 0.03 µM exceeds IC50 recorded for `O=C(CCCCCCn1cc(Nc2ncc3ccn(Cc4cccc(F)c4)c3n2)cn1)NO` . true

State whether 0.03 µM exceeds IC50 recorded for `O=C(CCCCCCn1cc(Nc2ncc3ccn(Cc4ccc(Cl)cc4)c3n2)cn1)NO` . false

State whether 0.03 µM exceeds IC50 recorded for `COc1cccc(Cn2ccc3cnc(Nc4cnn(CCCCCC(=O)NO)c4)nc32)c1` . false

State whether 0.03 µM exceeds IC50 recorded for `O=C(CCCCCCn1cc(Nc2ncc3ccn(-c4ccc(Br)cc4)c3n2)cn1)NO` . false

---

We begin with a simple list: items and their reported inhibition.
biological target: Protein deacetylase HDAC6 (Homo sapiens); assay: Inhibition of HDAC6 (unknown origin) at 10 nM incubated for 60 mins by microplate reader analysis relative to control
Write it as a number; the unit % goes unstated.

Worked examples, 4 compounds total:
structure	inhibition, %
O=C(CCCCCCn1cc(Nc2ncc3ccn(Cc4ccc(F)cc4)c3n2)cn1)NO	62
O=C(CCCCCn1cc(Nc2ncc3ccn(CCc4ccccc4)c3n2)cn1)NO	41
O=C(CCCCCn1cc(Nc2ncc3ccn(Cc4ccc(Cl)cc4)c3n2)cn1)NO	38
O=C(CCCCCn1cc(Nc2ncc3ccn(Cc4ccc(F)cc4)c3n2)cn1)NO	46

From here, focus on the item given below.
Retrieve inhibition measured for `Cc1ccc(Cn2ccc3cnc(Nc4cnn(CCCCCCC(=O)NO)c4)nc32)cc1` and print it. 38
